This collection of values is drawn from ChEMBL document CHEMBL5352497.

Test system: Escherichia coli
ASSAY PROCEDURE: Antibacterial activity against Escherichia coli MC1061
Assay type: functional
Parameter MIC: see the listing below.
PROPERTY MEASURED: MIC (µg/mL)

> print(dat)
                    structure.notation  comparator  readout.number
1          O=C(NNc1ccc(Cl)cc1)c1ccccn1           =              16
2    O=C(NNc1ccc(Cl)cc1)c1ccc2ccccc2n1           =              16
3  O=C(NNc1ccc(Cl)cc1)c1cc2ccccc2[nH]1           >              64
4       O=C(NNc1ccc(Cl)cc1)c1ccc(F)cn1           =              16
5        O=C(NNC1CCCCC1)c1ccc2ccccc2n1           =              64

====

System: Staphylococcus epidermidis
ASSAY PROCEDURE: Antibacterial activity against Staphylococcus epidermidis ATCC 12228
Assay type: functional
PROPERTY MEASURED: MIC (µg/mL)

> print(dat)
               structure.notation  comparator  readout.number
1  COc1cccc(NNC(=O)c2ccc(F)cn2)c1           =              64
2   O=C(NNc1ccc(F)cc1)c1ccc(F)cn1           >              64
3   O=C(NNC1CCCCC1)c1ccc2ccccc2n1           >              64
4          C=CC(=O)NNc1ccc(Cl)cc1           =              64
5  O=C(NNc1ccc(Cl)cc1)c1ccc(F)cn1           >              64

====

System: Escherichia coli
ASSAY PROCEDURE: Antibacterial activity against Escherichia coli MC1061
Type: functional
PROPERTY MEASURED: MIC (µg/mL)

> print(dat)
                                    compound  value.unit  comparator  readout.number
 1             O=C(NNc1ccc(F)cc1)c1ccc(F)cn1       µg/mL           =              64
 2            COc1ccc(NNC(=O)c2ccc(F)cn2)cc1       µg/mL           >              64
 3               O=C(NNc1ccc(Cl)cc1)c1ccccc1       µg/mL           =              16
 4            CCOC(=O)CNNC(=O)c1ccc2ccccc2n1       µg/mL           >              64
 5                O=C(NNc1ccc(Cl)cc1)c1ccco1       µg/mL           =              16
 6           O=C(NNc1ccc(Cl)cc1)c1ccc(F)cc1F       µg/mL           =              16
 7            O=C(NNc1ccc(Cl)cc1)c1cccc(F)n1       µg/mL           =              16
 8                     CCC(=O)NNc1ccc(Cl)cc1       µg/mL           =              16
 9                    C=CC(=O)NNc1ccc(Cl)cc1       µg/mL           =              16
10  O=C(O)c1cn(C2CC2)c2cc(N3CCNCC3)c(F)cc2c1=O [CIPROFLOXACIN]       µg/mL           ≤           0.063
11               O=C(NNc1cccc(Cl)c1)c1ccccn1       µg/mL           =               4
12            COc1cccc(NNC(=O)c2ccc(F)cn2)c1       µg/mL           >              64
13             O=C(NNc1cccc(F)c1)c1ccc(F)cn1       µg/mL           =              64
